Test system: human CTPS1 versus CTPS2
Test: Human CTPS1 versus CTPS2 selectivity assessment by RapidFire/MS analysis
Format: biochemical
Details: Table 26; RapidFire/MS IC50 ratio
Measure: Selectivity (fold selectivity between CTPS1 and CTPS2)

Compound	Result
CC(C)(NC(=O)c1ccc(-c2cncc(C(F)(F)F)n2)cc1)c1cncc(NS(=O)(=O)C2CC2)n1 [Example P222]	+ (2-30 fold (+))
CCOc1cncc(-c2ccc(NC(=O)C(CC)c3cncc(NS(=O)(=O)C4CC4)n3)nc2)n1 (stereo not drawn) [Example P201]	+++ (>60 fold (+++))
CCC(C(=O)Nc1ccc(-c2cncc(C(F)(F)F)n2)cc1)c1ccnc(NS(=O)(=O)C2CC2)n1 (stereo not drawn) [Example P103]	+ (2-30 fold (+))
CCOc1cncc(-c2ccc(NC(=O)Cc3ccnc(NS(=O)(=O)C4CC4)n3)cc2)n1 [Example P18]	++ (>30-60 fold (++))
CCOc1cncc(-c2ccc(NC(=O)C(C)(C)c3ccnc(NS(=O)(=O)CC)n3)cc2)n1 [Example P74]	++ (>30-60 fold (++))
CCOc1cncc(-c2ccc(NC(=O)C(F)(CC)c3cncc(NS(=O)(=O)C4CC4)n3)nc2)n1 (single isomer, unassigned) [Example P206]	+++ (>60 fold (+++))
CCOc1cncc(-c2ccc(NC(=O)C(OC)c3ccnc(NS(=O)(=O)C4CC4)n3)cc2)n1 (stereo not drawn) [Example P164]	+ (2-30 fold (+))
CCOc1cncc(-c2ccc(NC(=O)C(F)(CC)c3ccnc(NS(=O)(=O)C4CC4)n3)nc2)n1 (single isomer, unassigned) [Example P114]	+++ (>60 fold (+++))

If you can, please state the reported Selectivity (fold selectivity between CTPS1 and CTPS2) value of CCOc1cncc(-c2ccc(NC(=O)C(CCOC)c3ccnc(NS(=O)(=O)C4CC4)n3)cc2)n1 (stereo not drawn) [Example P110] . ++ (>30-60 fold (++))

What about CCOc1cncc(-c2ccc(NC(=O)C(C)(C)c3cncc(NS(=O)(=O)C4CC4)n3)nc2)n1 [Example P195] ? +++ (>60 fold (+++))

What about CC(C)c1cncc(-c2ccc(NC(=O)C(C)(C)c3ccnc(NS(=O)(=O)C4CC4)n3)cc2)n1 [Example P132] ? ++ (>30-60 fold (++))

What about CCC(C(=O)Nc1ccc(-c2cncc(Cl)c2)cc1)c1ccnc(NS(=O)(=O)C2CC2)n1 (stereo not drawn) [Example P1] ? + (2-30 fold (+))

What about CCOc1cncc(-c2ccc(NC(=O)C3(c4ccnc(NS(=O)(=O)C5CC5)n4)CCCC3)cc2)n1 [Example P2] ? +++ (>60 fold (+++))

What about CCOc1cncc(-c2ccc(NC(=O)C3(c4ccnc(NS(=O)(=O)C5CC5)n4)CCCC3)nc2)n1 [Example P136] ? +++ (>60 fold (+++))

What about CCOc1cncc(-c2ccc(NC(=O)C(C)(C)c3ccnc(NS(=O)(=O)C4CC4)n3)c(F)c2)n1 [Example P38] ? + (2-30 fold (+))
